Ends that are not written are not given here.
readout.label: chemotactic activity, % of wild type AvBD-12

INSERT INTO assay_data (macromolecule_sequence, result) VALUES
  ('GPRSANHKRGLARVGNANPGKYLAKYSFRPVILSSKPLSPTPTKT [AvBD-12A3]', '> 50%');
